- System: PKN1
- Design: species or system human, MV4-11 + K-562 + COLO205 + SK-N-BE2 + OVCAR-8
- study conditions: read-out: apparent Kd; compound concentrations:100 nM and 1000 nM (sheet 'Samples'); n = 1
experimental readout: potency estimated from few doses (µM)
Write the answer as a number in µM, unit excluded.

Given item CC(C)N1CCC(n2cnc(-c3ccc(F)cc3)c2-c2ccnc(N)n2)CC1 [SB-223132] , the value recorded as its potency estimated from few doses is 1.44

// sample CCn1c(-c2nonc2N)nc2c(C#CC(C)(C)O)ncc(OC[C@@H]3CCCN3)c21.O=C(O)C(F)(F)F [GSK614526A] , its potency estimated from few doses was 0.215

Value of measured potency estimated from few doses for the entry CCn1c(-c2nonc2N)nc2cncc(C(=O)N3CCNCC3)c21.Cl [SB-759335-B] : 0.813

# potency estimated from few doses of CC(C)NCC(Cc1ccccc1)NC(=O)c1cc(Br)c(-c2ccnc3[nH]ccc23)s1.CC(C)NCC(Cc1ccccc1)NC(=O)c1cc(Br)c(-c2ccnc3[nH]ccc23)s1.Cl.Cl (stereo not shown) [GSK1383281A] = 0.84

Please fill in: potency estimated from few doses reported for Cl.Cl.c1ccc(-c2cc3ccncc3cc2OC2CCNCC2)cc1.c1ccc(-c2cc3ccncc3cc2OC2CCNCC2)cc1 [GSK1122999D] = 2.03

According to the records, this molecule CCn1c(-c2nonc2N)nc2c(C#CC(C)(C)O)nc(OCCN)cc21.CCn1c(-c2nonc2N)nc2c(C#CC(C)(C)O)nc(OCCN)cc21.Cl.Cl [GSK902056A] displays potency estimated from few doses of 0.085

The molecule listed as CCn1c(-c2nonc2N)nc2cncc(Br)c21 [SB-738004] shows potency estimated from few doses equal to 0.553
